Tested on: Tov-21-G
Assay: Primary qHTS to identify gynecologic anti-cancer compounds using libraries of approved drugs and bioactive compounds (AID 1345084); note: nearly all actives have a fitted effect of over 55% in size
Conditions: Gynecologic cancer cell panel viability, ATPlite luminescence, 48 h; series mostly up to 57.5 µM
Records with an inconclusive call do not appear. Activity calls are given as the source filed them. Calls come from the whole dose curve; as a rule, active = well fitted cell-killing curve with a large enough effect; inconclusive = small, poorly fitted or top-dose-only effect, or effect the other way; inactive = flat fitted curve, though single readings scatter.
Labels: active, inactive

Compound	Target	Discrete Label
COC(=O)c1ccnc(-c2cc(C(=O)Nc3ccc(C4(N)CC4)cc3)ccn2)c1	Tov-21-G	inactive
CC1(C)CCCC2(C)C1C(OC(=O)/C=C/C=C/C=O)C=C1COC(=O)C12O (centres undefined)	Tov-21-G	inactive
Nc1nc2c(s1)CCN(Cc1ccc(Cl)cc1)CC2	Tov-21-G	inactive
O=C(c1c(F)ccc(NS(=O)(=O)N2CC[C@@H](F)C2)c1F)c1c[nH]c2ncc(-c3cnc(C4CC4)nc3)cc12	Tov-21-G	active
CC(C)=CCc1cc2c(cc1O)OC[C@H]1c3ccc(O)cc3O[C@@H]21	Tov-21-G	inactive
CN(C)c1ccnc2sc3c(=O)n(N4CCCCCC4)cnc3c12	Tov-21-G	inactive
Cc1ccc(NC(=O)N2CCN(c3nc(N)nc4sc(-c5cccnc5)nc34)CC2)cc1	Tov-21-G	inactive
Cc1cc2c(c(=O)o1)C=C1CC[C@H]([C@H](C)Cn3cnc(=N)c4[nH]cnc43)C[C@@H]1O2	Tov-21-G	inactive
CC(C)C[C@@H]1NC(=O)[C@@H]2C[C@@]34C[C@@H]5[C@@]6(C)CCCC(C)(C)C6CC[C@@]5(C)N(c5ccccc53)[C@H]4N2C1=O (some centres undefined)	Tov-21-G	inactive

###

Molecular target: Nicotinamide N-methyltransferase (Homo sapiens) (UniProt P40261)
Sequence (P40261 whole entry, looked up): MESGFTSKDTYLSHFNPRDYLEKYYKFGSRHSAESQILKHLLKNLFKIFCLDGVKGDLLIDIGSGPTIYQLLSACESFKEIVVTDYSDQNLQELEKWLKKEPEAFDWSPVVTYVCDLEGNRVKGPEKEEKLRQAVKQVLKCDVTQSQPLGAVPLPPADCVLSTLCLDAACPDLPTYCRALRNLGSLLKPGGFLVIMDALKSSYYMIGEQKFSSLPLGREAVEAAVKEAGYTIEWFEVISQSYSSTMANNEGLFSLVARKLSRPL
Test: Confirmatory Screen for Target Class Profiling of Small Molecule Inhibitors of Methyltransferases (AID 1745852)
Conditions: MTase-Glo luminescence, SAH detection, recombinant enzyme; measured here: NNMT max response; stronger effect = lower value
activity listing for selected compounds.
Recorded Endpoint: activity (%)

> print(dat)
                                    compound  recorded.endpoint  assay.value
 1  C=C1C(=O)OC2/C=C(/C)C3=CC(=O)C(C)(CC(OC(=O)/C(C)=C/COC(C)=O)C12)O3 (stereo not given)           activity        0.146
 2  C=C1C(=O)OC2C(OC(=O)C=C(C)C)C(C)=C3C(=O)C=C(C)C3C(O)C12 (stereo not given)           activity          2.7
 3  N#Cc1ccc(COC[C@H]2O[C@@H](n3c(NCc4ccc(Cl)c(Cl)c4)nc4c(N)ncnc43)[C@H](O)[C@@H]2O)cc1           activity        -79.6
 4  O=C(NCCCNc1nc(Nc2cccc(CN3CCOCC3)c2)ncc1C1CC1)C1CCC1           activity        -11.4
 5  CCC(CC)C(c1ccc(Nc2nc3ccccc3s2)cc1)n1cncn1 (stereo not given)           activity        -14.5
 6  CCCCNc1ncc(C(=O)NCc2ccc(-n3ccnc3)cc2)c(NC2CCC(O)CC2)n1 (stereo not given)           activity        -47.3
 7  CC(C)(C)Sc1c(CC(C)(C)C(=O)O)n(Cc2ccc(Cl)cc2)c2ccc(OCc3ccc4ccccc4n3)cc12           activity        -17.1
 8  COc1c(CCC(=O)O)cccc1O[C@@H]1O[C@H](CO)[C@@H](O)[C@H](O)[C@H]1O           activity        0.561
 9  COc1ccc(CCc2nc3c(C)c(-c4c(C)noc4C)c(C)cc3n2CCN2CCOCC2)cc1           activity          -28
10       c1cc(NC2CCNCC2)nc(-c2cnc3ccccn23)c1           activity        -8.81
11  C=C1C(=O)OC2CC(C)C(CCC(C)O)=CCC12 (stereo not given)           activity        -3.12
12  COc1ccccc1N1CCN(c2ncnc3n[nH]c(Br)c23)CC1           activity        -42.7
13  CC[C@H]1CN(c2nc(N)c(C(N)=O)nc2Cl)CCN1C1CCN(Cc2ccc(Cl)cc2)CC1           activity        -61.1
14  C=C1C(=O)O[C@@H]2/C=C(\CO)CC/C=C(/C=O)C[C@H](O)[C@@H]12           activity         4.28
15  O=S(=O)(Nc1cc(Cl)c(Oc2cnc3ccccc3c2)c(Cl)c1)c1ccc(Cl)cc1Cl           activity        -47.5
16  CNCCC(c1cccs1)c1ccc(O)c2ccccc12 (stereo not given)           activity        -7.38
17                    N#CSc1cc(SC#N)c(N)nc1N           activity          -72
18  CC[N+]1(C/C2=C/CCCCCC2)CCC(NC(=O)C2c3cc(Cl)ccc3Oc3ccc(Cl)cc32)CC1 (stereo not given)           activity          -28
19  C=C1C(=O)O[C@H]2CC(=C)[C@H]3CC[C@@](C)(O)[C@@H]3CC12 (stereo not given in full)           activity            0
20  CN(C)CC1CCn2c(c(C3=C(c4cn(C)c5ccccc45)C(=O)NC3=O)c3ccccc32)C1 (stereo not given)           activity        -44.5

###

System: CRL-7250
Test: Cytotoxic Profiling of Annotated Libraries Using Quantitative High-Throughput Screening (AID 1296008); note: % is set by controls: 0 for no effect and ±100 for the full control effect; nearly all actives have a fitted effect of over 60% in size
Details: Five cell lines viability, CellTiter-Glo ATP luminescence, 48-72 h; stronger effect = lower value
Inconclusive results are not listed.
# key: entry, value: max response
Recorded Endpoint: max response (%)

> print(dat)
                                    compound  recorded.endpoint  assay.value
 1  Cc1nc(-c2cn3c(n2)-c2ccc(-c4cnn(C(C)(C)C(N)=O)c4)cc2OCC3)n(C(C)C)n1       max response         4.52
 2  O=C(NCCCc1ccccc1)C1CCC(CNS(=O)(=O)c2cccc3nsnc23)CC1 (stereo not drawn)       max response        -1.65
 3  CCC/C=C\C=C/CCc1cc(O)c([C@@H]2O[C@H](CO)[C@@H](O)[C@H](O)[C@H]2O)c(O)c1C(=O)OC       max response        -29.4
 4  COC1C(OC(=O)/C=C/C=C/C=C/C=C/C(=O)O)CCC2(CO2)C1C1(C)OC1CC=C(C)C (stereo not drawn)       max response        -15.2
 5  O=c1[nH]cnc2c([C@@H]3N[C@H](CO)[C@@H](O)[C@H]3O)c[nH]c12       max response        -8.88
 6  CC1(C)Oc2ncnc(N)c2N=C1c1ccc(C23CCC(CC(=O)O)(CC2)CC3)cc1       max response         1.74
 7  COc1ccc2cc(-c3cc(-c4cc(Cl)cc(Cl)c4)nn3C(C)c3ccc(C(=O)NCCC(=O)O)cc3)ccc2c1 (stereo not drawn)       max response         2.03
 8  Cc1c(C2=CCN(C(=O)N(C)C(C)C)CC2)nnn1-c1cccnc1F       max response        -2.94
 9  CC(=O)c1c(C)cc2cccc(O)c2c1O[C@@H]1O[C@H](CO)[C@@H](O)[C@H](O)[C@H]1O       max response        -1.95
10  CCC[C@H](N[C@H]1CCc2cc(F)cc(F)c2C1)C(=O)Nc1cn(C(C)(C)CNCC(C)(C)C)cn1       max response         4.72
11  CCc1c[nH]c2ncnc(N3CC[C@](N)(CNC(=O)c4ccc(F)cc4F)C3)c12       max response        -13.8
12  COc1cc(C(=O)NC(=S)Nc2cccc(NC(=O)c3ccccc3)c2)cc(OC)c1OC       max response          -13
13  CCCCNc1ncc(-c2ccc(CN3CCOCC3)cn2)c(NC2CCC(O)CC2)n1 (stereo not drawn)       max response        -14.5
14  C/C=C/C1=CC2=C(CO1)C(=O)C(C)(OC(=O)c1c(C)cc(O)cc1OC)C(O)C2 (stereo not drawn)       max response         3.73
15  CC1(C)CCC(C)(C)c2cc(C#Cc3ccc(C(=O)O)cc3)ccc21       max response        -18.1
16  C=C1CC[C@H]2C(=C)CC[C@H]3C(=C)C(=O)O[C@@H]3[C@@H]12       max response        -11.6
17  C=CC(=O)N1CCCC(n2nc(-c3ccc(Oc4ccccc4)cc3)c3c(N)ncnc32)C1 (stereo not drawn)       max response         3.87
18  CC1OC(=O)C[C@@H]2C(C(=O)O)=CO[C@@H](O[C@H]3O[C@H](CO)[C@@H](O)[C@H](O)[C@H]3O)[C@H]12 (stereo partly drawn)       max response        -4.73
